- System: α-glucosidase
- assay: in vitro α-glucosidase inhibitory activity
- Format: biochemical, Homo sapiens
- experimental.conditions: 62.5 µM
Quick rule: % α-Glucosidase Inhibition of at least 70% means True, below that means False.

Request: Does the reported % α-Glucosidase Inhibition for CC(C)(/C=C1\SC(=O)N(C(=O)CN2CCOCC2)C1=O)[C@@H]1CC(=O)N(c2ccccc2)C1=O [10c] fall at or above the 70% mark?
Result: False

Request: Does the reported % α-Glucosidase Inhibition for CC(C)(C=C1SC(=O)N(C(=O)CN2CCOCC2)C1=O)C1CC(=O)N(Cc2ccccc2)C1=O (stereo not drawn) [10d] fall at or above the 70% mark?
Result: True

Request: Does the reported % α-Glucosidase Inhibition for COc1ccc(N2C(=O)C[C@@H](C(C)(C)/C=C3\SC(=O)N(C(=O)CN4CCOCC4)C3=O)C2=O)cc1 [10e] fall at or above the 70% mark?
Result: True

Request: Does the reported % α-Glucosidase Inhibition for CC(C)(/C=C1\SC(=O)N(C(=O)CN2CCOCC2)C1=O)[C@@H]1CC(=O)NC1=O [10a] fall at or above the 70% mark?
Result: False

Request: Does the reported % α-Glucosidase Inhibition for C[C@H]1O[C@H](O[C@H]2[C@H](O)[C@@H](O)[C@@H](O[C@H]3[C@H](O)[C@@H](O)C(O)O[C@@H]3CO)O[C@@H]2CO)[C@H](O)[C@@H](O)[C@@H]1N[C@H]1C=C(CO)[C@@H](O)[C@H](O)[C@H]1O (stereo partly drawn) [Acarbose, acarbose, reference compound] fall at or above the 70% mark?
Result: True

Request: Does the reported % α-Glucosidase Inhibition for CN1C(=O)C[C@@H](C(C)(C)/C=C2\SC(=O)N(C(=O)CN3CCOCC3)C2=O)C1=O [10b] fall at or above the 70% mark?
Result: False
